Biological target: Glutamate NMDA receptor
Experiment: Inhibition of [3H]MK-801 binding to N-methyl-D-aspartate glutamate receptor in rat brain cortical membranes.
pKi: −log10 of the molar value.
Reported pKi by item:
MEASURED_ENDPOINT: pKi

INSERT INTO assay_data (compound, measured_endpoint, result_modifier, result) VALUES
  ('C[C@@H]1[C@H]2Cc3ccc(O)cc3[C@@]1(C)CCN2C[C@@H](C)O', 'pKi', '=', 6.37),
  ('CCCN1CC[C@]2(C)c3cc(O)ccc3C[C@@H]1[C@H]2C', 'pKi', '=', 6.43),
  ('CO[C@@H](C)CN1CC[C@@]2(C)c3cc(O)ccc3C[C@H]1[C@@H]2C', 'pKi', '<', 4.00),
  ('C=CCN1CCC2(C)c3ccc(O)cc3CC1C2(C)C (stereo unspecified)', 'pKi', '=', 7.00),
  ('CC[C@H](CN1CC[C@]2(C)c3cc(O)ccc3C[C@@H]1[C@H]2C)OC', 'pKi', '=', 6.25),
  ('CO[C@H](C)CN1CC[C@]2(C)c3c(O)cccc3C[C@H]1C2(C)C', 'pKi', '=', 6.44),
  ('CO[C@H](C)CN1CC[C@@]2(C)c3cc(O)ccc3C[C@H]1[C@H]2C', 'pKi', '=', 5.02),
  ('CO[C@@H](C)CN1CC[C@]2(C)c3cc(O)ccc3C[C@@H]1[C@H]2C', 'pKi', '=', 7.45),
  ('CCCN1CC[C@@]2(C)c3cc(O)ccc3C[C@H]1[C@@H]2C', 'pKi', '=', 4.36),
  ('CCO[C@H](C)CN1CC[C@]2(C)c3cc(O)ccc3C[C@@H]1[C@@H]2C', 'pKi', '=', 5.74),
  ('CCO[C@H](C)CN1CC[C@]2(C)c3cc(O)ccc3C[C@@H]1[C@H]2C', 'pKi', '=', 5.89),
  ('CCO[C@@H](C)CN1CC[C@]2(C)c3cc(O)ccc3C[C@@H]1[C@@H]2C', 'pKi', '=', 5.94),
  ('CCC[C@@H](CN1CC[C@]2(C)c3cc(O)ccc3C[C@@H]1[C@H]2C)OC', 'pKi', '=', 6.31),
  ('C=CCN1CC[C@@]2(C)c3cc(O)ccc3C[C@H]1[C@H]2C', 'pKi', '=', 5.92),
  ('COC(C)(C)CN1CC[C@]2(C)c3cc(O)ccc3C[C@@H]1[C@@H]2C', 'pKi', '=', 6.55),
  ('CO[C@@H](C)CN1CC[C@@]2(C)c3c(O)cccc3C[C@@H]1C2(C)C', 'pKi', '=', 7.82);
